Tested on: UACC-257 melanoma
Test details: NCI-60 one-dose screen, 48 h (100 = growth as untreated, 0 = no growth, -100 = all killed)
Setup conditions: 10 µM unless noted
Compounds without any hit were thinned out: in the full panel of roughly 83,000, 20% have a hit.
I would appreciate it if you labelled entries 1.0 when growth is 80% or higher, otherwise 0.0.

Exercise: In plain terms: is recorded growth at least 80% for "COC1=CC(=O)O[C@@H](/C=C/c2ccc3c(c2)OCO3)C1" ?
Key: 1.0

Exercise: In plain terms: is recorded growth at least 80% for "CC[C@H](NC(=O)[C@H]1CCCCN1C)C(=O)N(C)[C@H](C[C@@H](OC(C)=O)c1nc(C(=O)N[C@@H](Cc2ccccc2)C[C@H](C)C(=O)O)cs1)C(C)C" ?
Key: 0.0

Exercise: In plain terms: is recorded growth at least 80% for "COC[C@@H]1C[C@@]2(C)[C@@H](CC[C@@H]3[C@@H]2CC[C@@]2(C)[C@H]3CC[C@]2(C)O)CC1=O" ?
Key: 1.0

Exercise: In plain terms: is recorded growth at least 80% for "CCOC(=O)CCN(C)C1=Nc2ccc(Cl)cc2C(c2ccccc2)=[N+]([O-])C1" ?
Key: 1.0

Exercise: In plain terms: is recorded growth at least 80% for "CC(=O)/C=C/c1ccc2c(c1)OCO2" ?
Key: 1.0

Exercise: In plain terms: is recorded growth at least 80% for "CCOc1ccc(/C=C/[N+](=O)[O-])cc1" ?
Key: 1.0

Exercise: In plain terms: is recorded growth at least 80% for "CC(=O)[O][Hg][c]1c(N)c(C)cc(C)c1F" ?
Key: 0.0

====

Tested on: HOP-62 NSCLC
Test details: NCI-60 one-dose screen, 48 h (100 = growth as untreated, 0 = no growth, -100 = all killed)
Setup conditions: 10 µM unless noted
Compounds without any hit were thinned out: in the full panel of roughly 83,000, 20% have a hit.
// classify: if (growth < 30%) met else not met

Exercise: Could you please tell me whether growth recorded for "CC[C@H](NC(=O)[C@H]1CCCCN1C)C(=O)N(C)[C@H](C[C@@H](OC(C)=O)c1nc(C(=O)N[C@@H](Cc2ccccc2)C[C@H](C)C(=O)O)cs1)C(C)C" is less than 30%?
Key: met

Exercise: Could you please tell me whether growth recorded for "O=C1C(Cl)=C(N2CCOCC2)C(=O)c2ccccc21" is less than 30%?
Key: not met

Exercise: Could you please tell me whether growth recorded for "COc1ccc(/C=C\c2cc(OC)c(OC)c(OC)c2)cc1OCC(=O)Nc1nc2ccc(OC(F)(F)F)cc2s1" is less than 30%?
Key: not met

Exercise: Could you please tell me whether growth recorded for "c1ccc(COc2ccc3[nH]cc(CCN(Cc4ccccc4)Cc4ccccc4)c3c2)cc1" is less than 30%?
Key: not met

Exercise: Could you please tell me whether growth recorded for "COC(=O)[C@H](Cc1ccccc1)NNC(=O)c1csc([C@@H](C[C@H](C(C)C)N(C)C(=O)[C@@H](NC(=O)[C@H]2CCCCN2C)C2CC2)OC(C)=O)n1" is less than 30%?
Key: met

Exercise: Could you please tell me whether growth recorded for CCCC(C)C1(CC)C(=O)NC(=O)N(C)C1=O (configuration not stated) is less than 30%?
Key: not met

Exercise: Could you please tell me whether growth recorded for "C[C@]12CC[C@@H]3c4ccc(Oc5nc(N6CC6)nc(N6CC6)n5)cc4CC[C@H]3[C@@H]1CCC2=O" is less than 30%?
Key: met

Exercise: Could you please tell me whether growth recorded for OCCNC(Cc1ccccc1)c1ccc2c(c1)OCO2 (configuration not stated) is less than 30%?
Key: not met

Exercise: Could you please tell me whether growth recorded for "O=[N+]([O-])c1cc([N+](=O)[O-])c(Cl)cc1Cl" is less than 30%?
Key: met

Exercise: Could you please tell me whether growth recorded for "C[CH2][Sn]([Cl])([Cl])[CH2]C.Oc1ccccc1C=NCCN=Cc1ccccc1O" is less than 30%?
Key: not met

Exercise: Could you please tell me whether growth recorded for "CC(C)[C@]12O[C@H]1[C@@H]1O[C@]13[C@]1(O[C@H]1C[C@H]1c4c(C(=O)c5ccccc5)oc(OC(=O)c5ccccc5)c4CC[C@@]13C)[C@@H]2O" is less than 30%?
Key: met

Exercise: Could you please tell me whether growth recorded for "CC1=C(CCCOC(=O)[C@H](N)CC(C)C)C2=C(C)C3(CC3)[C@@](C)(O)C(=O)C2=C1" is less than 30%?
Key: met

Exercise: Could you please tell me whether growth recorded for C1CCC([PH+](C2CCCCC2)C2CCCCC2[PH+](C2CCCCC2)C2CCCCC2)CC1.O=C(C1[CH-]CCCC1)C1CCCC[N-]1.[Au] (configuration not stated) is less than 30%?
Key: met

Exercise: Could you please tell me whether growth recorded for "Cn1cc(C2=C(c3cn(C4CCN(Cc5ccccn5)CC4)c4ccccc34)C(=O)NC2=O)c2ccccc21" is less than 30%?
Key: not met

Exercise: Could you please tell me whether growth recorded for "C=CCn1cc(C=C2C(=O)N(C)C(=O)N(C)C2=O)c2ccccc21" is less than 30%?
Key: not met

Exercise: Could you please tell me whether growth recorded for "COc1cc2c(=O)n(C3CCCCCCC3)c3c4cc[nH]c4ncc3c2cc1OC" is less than 30%?
Key: met

Exercise: Could you please tell me whether growth recorded for "O=C1NC(=O)C(=Cc2cn(C(=O)c3ccccc3)c3ccccc23)C(=O)N1" is less than 30%?
Key: not met
